This collection of values is drawn from patent US5424312A.

# Assayed System: dopamine D2 receptor (Rattus norvegicus, UniProt P61169)
# Construct: Striata from rats (Sprague Dawley, Charles River) were homogenized immediately after removal; from tissue; host or cells: rat striatum (Sprague Dawley, Charles River), membranes
# Sequence (P61169 whole entry): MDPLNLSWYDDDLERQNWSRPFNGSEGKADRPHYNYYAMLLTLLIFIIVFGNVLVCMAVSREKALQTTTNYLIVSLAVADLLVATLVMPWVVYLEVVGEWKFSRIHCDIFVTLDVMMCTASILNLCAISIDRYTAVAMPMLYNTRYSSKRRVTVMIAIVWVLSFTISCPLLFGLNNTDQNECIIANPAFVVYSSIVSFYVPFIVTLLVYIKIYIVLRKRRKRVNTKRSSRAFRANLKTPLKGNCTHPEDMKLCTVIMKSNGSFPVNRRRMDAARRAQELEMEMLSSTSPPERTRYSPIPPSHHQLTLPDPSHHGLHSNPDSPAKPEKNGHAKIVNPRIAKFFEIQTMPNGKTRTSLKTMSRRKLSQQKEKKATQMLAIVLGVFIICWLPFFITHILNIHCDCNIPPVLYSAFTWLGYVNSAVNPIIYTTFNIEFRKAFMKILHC
# Experimental Protocol: Receptor binding assay with 3H-ADTN on rat striatal membranes: affinity for the dopamine D2 receptor
# Set-up: species or system rat (Sprague Dawley)
# Recorded Conditions: rat striatum membranes; 1 nM 3H-ADTN; 0.1 μM SCH 23390; non-specific binding with 50 nM spiperone; 40 min at 25° C.; read-out: Affinity of the test substances for the dopamine D2 receptor, Ki
Where a name gives a salt, the structure may show the parent alone.
Known Ki of a selection of molecules
Expressed in nM, but write only the number.

Molecule	Assayed System	Measurement
Nc1nnc(CCN2CCC(c3ccccc3)CC2)s1	dopamine D2 receptor (Rattus norvegicus, UniProt P61169)	37
Nc1nnc(CCCCN2CCN(c3ccccn3)CC2)s1	dopamine D2 receptor (Rattus norvegicus, UniProt P61169)	44
Nc1nnc(CCN2CC=C(c3ccc(Cl)cc3)CC2)s1 [Example 7, dihydrochloride]	dopamine D2 receptor (Rattus norvegicus, UniProt P61169)	30
Nc1nnc(CCCN2CC=C(c3ccccc3)CC2)s1	dopamine D2 receptor (Rattus norvegicus, UniProt P61169)	32

Now take the following molecule into account.
Input: Give the measured Ki of Nc1nnc(CCN2CC=C(c3ccccc3)CC2)s1 .
Output: 30
